Examples of compounds with documented number in rating 0 (normal adult) follow.
tested on: housefly larvae; assay: topical application to housefly larvae; format: in vivo, Musca domestica; conditions: 1%; scale 0-2
Field format: numeric only.

CC(C)(Cl)CCCC(C)(Cl)CCCc1ccc2c(c1)OCO2 (stereo not shown) : 1

Any idea what number in rating 0 (normal adult) was measured for CCC(=CCCc1ccc2c(c1)OCO2)CCC1OC1(C)CC (stereo not shown) ?
5

Which number in rating 0 (normal adult) is reported for this compound? CC(C)=CCC/C(C)=C/CCc1ccc(Cl)cc1
3

Which number in rating 0 (normal adult) is listed for CC(C)=CCC/C(C)=C\CCc1ccc(Cl)cc1 ?
2

----------
Listed here: items and their measured number of specimens in rating 2.
test system: milkweed bug; test: topical application to milkweed bug, fourth nymphal stage, maturation inhibition; assay type: in vivo; details: 1%; rating scale 0-3
Numeric answer only, unit specimens assumed.

// worked examples, number of specimens in rating 2 included
COc1cccc(CCC=C(C)CCC=C(C)C)c1 : 5
CC(C)=CCC/C(C)=C/CCc1cccc(C)c1 : 2
CC(C)=CCC/C(C)=C/CCc1ccc(N(C)C)cc1 : 1
CCCCCCCCCc1ccc2c(c1)OCO2 : 1
CC(C)=CCC/C(C)=C/CCc1ccc(F)cc1 : 2
CCC(C)=CCCC(=CCCc1ccc2c(c1)OCO2)CC : 2

Request - read-out number of specimens in rating 2 | tested on milkweed bug | compound CCOc1cccc(CCC=C(C)CCC=C(C)C)c1
7

So what number of specimens in rating 2 did CC(C)=CCC/C(C)=C/CCc1ccc(C#N)cc1 get with milkweed bug?
3

----------
Measured number of specimens in rating 0 by item
system: milkweed bug; test: topical application to milkweed bug, fourth nymphal stage, maturation inhibition; assay type: in vivo; details: 1%; rating scale 0-3
Dear colleague, please return just the value in specimens, with no unit written.

CC(C)=CCC/C(C)=C/CCc1ccccc1 : 2

For the compound shown here, CC(C)=CCC/C(C)=C/CCc1cccs1 , give the reported number of specimens in rating 0.
10

State the recorded number of specimens in rating 0 for this entry: CCCCCCCCCc1ccc2c(c1)OCO2
3

Return reported number of specimens in rating 0; argument: CCC1(C)OC1CCC(C)=CCCc1ccc2c(c1)OCO2 (stereo not drawn)
2

What value of measured number of specimens in rating 0 is listed for CCC(C)=CCCC(=CCCc1ccc2c(c1)OCO2)CC ?
7

Consider the compound shown here: CC(C)=CCC/C(C)=C/CCc1cccc(C)c1 What is its recorded number of specimens in rating 0?
5

Reported number of specimens in rating 0 for CC(=CCCc1ccc2c(c1)OCO2)CCCC(C)C : what is it?
1

For the compound shown here, CC(C)=CCC/C(C)=C/CCc1c(Cl)cccc1Cl , give the reported number of specimens in rating 0.
8

# lookup: number of specimens in rating 0 of COc1ccc(CCC=C(C)CCC=C(C)C)cc1
5

----------
Parameter: number of specimens in rating 3. Scope: all listed entries.
test system: Mexican bean beetle; assay: topical application to Mexican bean beetle, fourth larval stage, maturation inhibition; assay type: in vivo; conditions: 1%; rating scale 0-3
Form entry: value (specimens) — number only.

Worked set:
CC(=CCCc1ccc2c(c1)OCO2)CCCC(C)C : 10
CC(C)=CCC/C(C)=C/CCc1ccccc1 [2,6-DIMETHYL-9-PHENYL-2,6-NONADIENE] : 10

Hi! What's the reported number of specimens in rating 3 for CCC1(C)OC1CCC(C)=CCCc1ccc2c(c1)OCO2 (stereo not shown) on Mexican bean beetle?
10

Kindly state the measured number of specimens in rating 3 obtained for CC(C)=CCC/C(C)=C/CCc1cccc(C)c1 with Mexican bean beetle.
7

Find number of specimens in rating 3 (Mexican bean beetle) for the entry CC(C)=CCC/C(C)=C/CCc1cccc(Cl)c1
1

# value lookup — system Mexican bean beetle, readout number of specimens in rating 3, item CC(C)=CCC/C(C)=C/CCc1ccc(Br)cc1
10

Give recorded number of specimens in rating 3 with Mexican bean beetle for the following molecule: CC(C)=CCC/C(C)=C/CCc1ccc(N(C)C)cc1
1

----------
Documented number of specimens in rating 1 across a set of molecules
system: Tenebrio molitor pupae; experiment: topical application to Tenebrio molitor pupae, maturation inhibition; type: in vivo; details: 0.5%; rating scale 0-4
Field format: number, assumed specimens, no unit text.

Which number of specimens in rating 1 is listed for CC(C)=CCC/C(C)=C/CCc1ccccc1 ?
3

Need number of specimens in rating 1, item CC(=CCCc1ccc2c(c1)OCO2)CCCC(C)C
1

Data request, read-out number of specimens in rating 1, for CC(C)=CCC/C(C)=C/CCc1ccc(Br)cc1
1

number of specimens in rating 1 lookup needed for CC(C)=CCC/C(C)=C/CCc1cccc(Br)c1 , thanks.
1

Please give the measured number of specimens in rating 1 for this molecule: COc1ccc(CCC=C(C)CCC=C(C)C)cc1
6

Tell me the measured number of specimens in rating 1 of CCCCCCCCCc1ccc2c(c1)OCO2 , please.
1

Given the molecule CC(C)=CCC/C(C)=C/CCc1cccs1 , what is its reported number of specimens in rating 1?
2

If you can, please state the reported number of specimens in rating 1 value of CC(C)(Cl)CCCC(C)(Cl)CCCc1ccc2c(c1)OCO2 (centres unmarked) .
2

----------
tested on: Tenebrio molitor pupae; assay: topical application to Tenebrio molitor pupae, maturation inhibition; format: in vivo; details: 10%; rating scale 0-4
Measured number of specimens in rating 3 of individual entries
Only the number, expressed in specimens, is required.

CCCCCCCCCc1ccc2c(c1)OCO2 : 3
CC(C)=CCC/C(C)=C/CCc1ccccc1 : 4
CCOC(=O)c1ccc(CC/C=C(\C)CCC=C(C)C)cc1 : 1
CCOc1cccc(CCC=C(C)CCC=C(C)C)c1 : 5
CC(C)=CCC/C(C)=C/CCc1cccc(Cl)c1 : 6

Now, please, on to the next molecule.
Endpoint output: number of specimens in rating 3 of CC(C)(Cl)CCCC(C)(Cl)CCCc1ccc2c(c1)OCO2 (stereo not drawn) . Value?
9

----------
test system: milkweed bug; assay: topical application to milkweed bug, fourth nymphal stage, maturation inhibition; format: in vivo; settings: 0.5%; rating scale 0-3
assay-endpoint: number of specimens in rating 2 (specimens)
Dear colleague, please return just the value in specimens, with no unit written.

CCOc1cccc(CCC=C(C)CCC=C(C)C)c1 : 2
COc1cccc(CCC=C(C)CCC=C(C)C)c1 : 4
CC(C)=CCC/C(C)=C/CCc1ccc(C#N)cc1 : 1
CCOC(=O)c1ccc(CC/C=C(\C)CCC=C(C)C)cc1 : 3

Would you kindly share the measured number of specimens in rating 2 for CC(=CCCc1ccc2c(c1)OCO2)CCC1OC1(C)C (centres unmarked) ?
4

Suppose we examine the compound CC(C)=CCC/C(C)=C/CCc1ccccc1 ; what number of specimens in rating 2 value has been reported?
1

number of specimens in rating 2 for CC(C)=CCC/C(C)=C/CCc1ccc(F)cc1 ?
3

Reported number of specimens in rating 2 for CCC1(C)OC1CCC(C)=CCCc1ccc2c(c1)OCO2 (centres unmarked) : what is it?
2

----------
test system: housefly larvae; experiment: topical application to housefly larvae; format: in vivo, Musca domestica; conditions: 10%; scale 0-2
assay-endpoint: number in rating 2 (no evidence of emergence)
Lab note: jot down the number only; don't add units.

Example cases with answers are listed next.
CC(C)=CCC/C(C)=C\CCc1ccc(Cl)cc1 : 6
CC(=CCCc1ccc2c(c1)OCO2)CCC1OC1(C)C (centres unmarked) : 10

Any idea what number in rating 2 (no evidence of emergence) was measured for CC(C)(Cl)CCCC(C)(Cl)CCCc1ccc2c(c1)OCO2 (centres unmarked) ?
10

Endpoint output: number in rating 2 (no evidence of emergence) of CCC(=CCCc1ccc2c(c1)OCO2)CCC1OC1(C)CC (centres unmarked) . Value?
10

Given the entry CC(C)=CCC/C(C)=C/CCc1ccc(Cl)cc1 , report its measured number in rating 2 (no evidence of emergence).
5

----------
test system: milkweed bug; assay: topical application to milkweed bug, fourth nymphal stage, maturation inhibition; format: in vivo; details: 1%; rating scale 0-3
In this section we review reported number of specimens in rating 0 values for a set of compounds.
Give the quantity in specimens, number only.

# example entries with known answers
COc1ccc(CCC=C(C)CCC=C(C)C)cc1OC : 8
CC(C)=CCCC(C)=CCCc1cc2c(cc1Cl)OCO2 : 3

Now examine the next entry.
Give its number of specimens in rating 0 value. Item: CC(C)=CCC/C(C)=C/CCc1ccc(N(C)C)cc1
5
